# Measured On: human recombinant EP1 receptor (Homo sapiens, UniProt P34995)
# Sequence (P34995 whole entry): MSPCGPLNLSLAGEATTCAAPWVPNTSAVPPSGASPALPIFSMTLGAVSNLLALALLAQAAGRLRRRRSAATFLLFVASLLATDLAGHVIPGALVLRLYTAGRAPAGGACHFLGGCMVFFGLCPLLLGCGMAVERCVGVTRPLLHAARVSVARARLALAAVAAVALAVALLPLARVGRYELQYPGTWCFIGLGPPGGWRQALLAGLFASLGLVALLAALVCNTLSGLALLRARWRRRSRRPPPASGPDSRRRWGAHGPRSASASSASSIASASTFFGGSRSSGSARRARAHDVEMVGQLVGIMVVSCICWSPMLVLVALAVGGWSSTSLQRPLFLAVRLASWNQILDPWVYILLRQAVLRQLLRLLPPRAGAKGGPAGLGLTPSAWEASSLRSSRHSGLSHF
# Assay Comment: [3H]PGE2 displacement, membranes
Property Measured: Ki (nM)
Respond numerically; units are nM and should not be typed.

Give Ki (human recombinant EP1 receptor (Homo sapiens, UniProt P34995)) of the following molecule: CCCCC[C@H](O)/C=C/[C@H]1[C@H](O)CC(=O)[C@@H]1C/C=C\CCCC(=O)O [PGE2]
50.1

---

# Measured On: human recombinant DP1 receptor (Homo sapiens)
# Sequence (Q13258 whole entry): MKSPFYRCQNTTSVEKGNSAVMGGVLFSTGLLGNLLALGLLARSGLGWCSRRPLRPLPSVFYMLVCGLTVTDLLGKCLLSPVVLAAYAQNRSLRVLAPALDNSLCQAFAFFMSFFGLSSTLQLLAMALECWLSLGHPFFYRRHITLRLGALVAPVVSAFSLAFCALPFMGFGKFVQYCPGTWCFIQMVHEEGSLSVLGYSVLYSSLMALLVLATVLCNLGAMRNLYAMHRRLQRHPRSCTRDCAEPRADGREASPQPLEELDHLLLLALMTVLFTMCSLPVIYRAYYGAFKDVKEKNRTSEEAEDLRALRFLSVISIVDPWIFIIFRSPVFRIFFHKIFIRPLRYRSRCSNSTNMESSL
# Assay Comment: [3H]PGD2 displacement, membranes
Property Measured: Ki (nM)
Respond numerically; units are nM and should not be typed.

Request the reported Ki associated with "CCCCC[C@H](O)/C=C/[C@H]1C(=O)C[C@H](O)[C@@H]1C/C=C\CCCC(=O)O"
2.51
